# Study system: Human immunodeficiency virus type 1 protease (Human immunodeficiency virus 1)
# Assay explanation: Inhibitory activity against HIV-1 protease
Measured Ki, listed per entry for reference.

# annotated cases, reported Ki shown
CC[C@H](C)[C@H](NC(=O)[C@H](C(C)C)[C@@H](O)[C@H](O)[C@H](CC1CCCCC1)NC(=O)[C@H](Cc1c[nH]cn1)NC(=O)CN)C(=O)NCc1ccccn1    11 nM
CC[C@H](C)[C@H](NC(=O)[C@H](CC(C)C)[C@@H](O)[C@H](O)[C@H](CC(C)C)NC(=O)[C@H](Cc1c[nH]cn1)NC(=O)COc1cccc2ccccc12)C(=O)NCc1ccccn1    7 nM
CC[C@H](C)[C@H](NC(=O)[C@H](C(C)C)[C@@H](O)[C@H](O)[C@H](CC1CCCCC1)NC(=O)[C@H](Cc1c[nH]cn1)NC(=O)COc1ccccc1)C(=O)NCc1ccccn1    2 nM

Please find the next compound below.
Input line: Return Ki measured with Human immunodeficiency virus type 1 protease (Human immunodeficiency virus 1) given this compound: CC[C@H](C)[C@H](NC(=O)[C@H](C(C)C)[C@@H](O)[C@H](O)[C@H](CC1CCCCC1)NC(=O)[C@H](Cc1c[nH]cn1)NC(=O)COc1cccc2ccccc12)C(=O)NCc1ccccn1
Output line: < 1 nM
